List of Maximum Non-Cytotoxic Concentration HMEC-1 tested on HMEC-1 human vascular endothelial cells.
Measured endpoint: Maximum Non-Cytotoxic Concentration HMEC-1 (%)

>  <Molecule>
O=C(O)CCCCCSCCC(F)(F)C(F)(F)C(F)(F)C(F)(F)C(F)(F)C(F)(F)C(F)(F)C(F)(F)F [2c3c]

>  <Unit info>
%

>  <Censoring operator>
=

>  <Numeric result>
0.5

$$$$
>  <Molecule>
O=C(O)CSCCC(F)(F)C(F)(F)C(F)(F)C(F)(F)C(F)(F)C(F)(F)C(F)(F)C(F)(F)F [2a3f]

>  <Unit info>
%

>  <Censoring operator>
=

>  <Numeric result>
0.2

$$$$
>  <Molecule>
O=C(O)CCC(=O)OCCC(F)(F)C(F)(F)C(F)(F)C(F)(F)C(F)(F)C(F)(F)C(F)(F)C(F)(F)F [2j3a]

>  <Unit info>
%

>  <Censoring operator>
=

>  <Numeric result>
0.2

$$$$
>  <Molecule>
O=C(O)CCC(=O)OCCC(F)(F)C(F)(F)C(F)(F)C(F)(F)C(F)(F)C(F)(F)C(F)(F)C(F)(F)F [2j3l]

>  <Unit info>
%

>  <Censoring operator>
=

>  <Numeric result>
1

$$$$
>  <Molecule>
O=C(O)CCC(=O)OCCC(F)(F)C(F)(F)C(F)(F)C(F)(F)C(F)(F)C(F)(F)C(F)(F)C(F)(F)F [2j3c]

>  <Unit info>
%

>  <Censoring operator>
=

>  <Numeric result>
0.5

$$$$
>  <Molecule>
O=C(O)CCC(=O)OCCC(F)(F)C(F)(F)C(F)(F)C(F)(F)C(F)(F)C(F)(F)C(F)(F)C(F)(F)F [2j3k]

>  <Unit info>
%

>  <Censoring operator>
=

>  <Numeric result>
0.5

$$$$
>  <Molecule>
O=C(O)CCCC(=O)OCCC(F)(F)C(F)(F)C(F)(F)C(F)(F)C(F)(F)C(F)(F)F [2k3l]

>  <Unit info>
%

>  <Censoring operator>
<

>  <Numeric result>
0.25

$$$$
>  <Molecule>
O=C([O-])CCC(=O)OCCC(F)(F)C(F)(F)C(F)(F)C(F)(F)C(F)(F)C(F)(F)C(F)(F)C(F)(F)F.[K+]

>  <Unit info>
%

>  <Censoring operator>
=

>  <Numeric result>
0.5

$$$$
>  <Molecule>
O=C(O)CSCCC(F)(F)C(F)(F)C(F)(F)C(F)(F)C(F)(F)C(F)(F)C(F)(F)C(F)(F)F [2a3e]

>  <Unit info>
%

>  <Censoring operator>
=

>  <Numeric result>
0.2

$$$$
>  <Molecule>
O=C(O)CSCCC(F)(F)C(F)(F)C(F)(F)C(F)(F)C(F)(F)C(F)(F)C(F)(F)C(F)(F)F [2a3a]

>  <Unit info>
%

>  <Censoring operator>
=

>  <Numeric result>
1

$$$$
>  <Molecule>
O=C([O-])CCC(=O)OCCC(F)(F)C(F)(F)C(F)(F)C(F)(F)C(F)(F)C(F)(F)F.[K+]

>  <Unit info>
%

>  <Censoring operator>
=

>  <Numeric result>
0.25

$$$$
>  <Molecule>
O=C(O)CSCCC(F)(F)C(F)(F)C(F)(F)C(F)(F)C(F)(F)C(F)(F)C(F)(F)C(F)(F)F [2a3b]

>  <Unit info>
%

>  <Censoring operator>
=

>  <Numeric result>
0.5

$$$$
>  <Molecule>
O=C(O)C(CCC(F)(F)C(F)(F)C(F)(F)C(F)(F)C(F)(F)C(F)(F)C(F)(F)C(F)(F)F)C(=O)O

>  <Unit info>
%

>  <Censoring operator>
=

>  <Numeric result>
0.25

$$$$
>  <Molecule>
O=C([O-])CCC(=O)OCCC(F)(F)C(F)(F)C(F)(F)C(F)(F)C(F)(F)C(F)(F)C(F)(F)C(F)(F)F.[Na+]

>  <Unit info>
%

>  <Censoring operator>
=

>  <Numeric result>
0.5

$$$$

---

# reported Average diameter; entries follow
Protocol notes: Particle size distribution of O/W emulsions with Accusizer 780 Optical Particle Sizer
Format: physicochemical
Condition set: O/W emulsion; footnote c: measured with Accusizer 780 Optical Particle Sizer
Measured endpoint: Average diameter

>  <Compound>
O=C([O-])CCC(=O)OCCC(F)(F)C(F)(F)C(F)(F)C(F)(F)C(F)(F)C(F)(F)C(F)(F)C(F)(F)F.[K+]

>  <Result>
1090 ± 10 ^c nm

$$$$
>  <Compound>
O=C([O-])CSCCC(F)(F)C(F)(F)C(F)(F)C(F)(F)C(F)(F)C(F)(F)C(F)(F)C(F)(F)F.[Na+]

>  <Result>
710 ± 20 ^c nm

$$$$
>  <Compound>
O=C(O)CSCCC(F)(F)C(F)(F)C(F)(F)C(F)(F)C(F)(F)C(F)(F)C(F)(F)C(F)(F)F [2a3b]

>  <Result>
640 ± 10 ^c nm

$$$$
>  <Compound>
O=C([O-])CCC(=O)OCCC(F)(F)C(F)(F)C(F)(F)C(F)(F)C(F)(F)C(F)(F)F.[K+]

>  <Result>
880 ± 40 ^c nm

$$$$
>  <Compound>
O=C([O-])CCC(=O)OCCC(F)(F)C(F)(F)C(F)(F)C(F)(F)C(F)(F)C(F)(F)C(F)(F)C(F)(F)F.[Na+]

>  <Result>
820 ± 20 ^c nm

$$$$
>  <Compound>
O=C([O-])CSCCC(F)(F)C(F)(F)C(F)(F)C(F)(F)C(F)(F)C(F)(F)C(F)(F)C(F)(F)F.[K+]

>  <Result>
770 ± 20 ^c nm

$$$$
>  <Compound>
O=C(O)CSCCC(F)(F)C(F)(F)C(F)(F)C(F)(F)C(F)(F)C(F)(F)C(F)(F)C(F)(F)F [2a3d]

>  <Result>
640 ± 10 ^c nm

$$$$

---

List of Maximum Non-Hemolytic Concentration tested on blood.

>  <Compound>
O=C([O-])CCC(=O)OCCC(F)(F)C(F)(F)C(F)(F)C(F)(F)C(F)(F)C(F)(F)C(F)(F)C(F)(F)F.[K+] [2jK]

>  <Maximum Non-Hemolytic Concentration>
>2.00%

$$$$
>  <Compound>
O=C(O)CCC(=O)OCCC(F)(F)C(F)(F)C(F)(F)C(F)(F)C(F)(F)C(F)(F)C(F)(F)C(F)(F)F [2j3c]

>  <Maximum Non-Hemolytic Concentration>
>2.00%

$$$$
>  <Compound>
O=C(O)CCC(=O)OCCC(F)(F)C(F)(F)C(F)(F)C(F)(F)C(F)(F)C(F)(F)C(F)(F)C(F)(F)F [2j3l]

>  <Maximum Non-Hemolytic Concentration>
>2.00%

$$$$

---

Marks after values point to notes of the source that are not given here.
List of Maximum Non-Cytotoxic Concentration HMEC-1 tested on HMEC-1 human vascular endothelial cells.
Measured endpoint: Maximum Non-Cytotoxic Concentration HMEC-1

>  <Compound>
O=C(O)CCCC(=O)OCCC(F)(F)C(F)(F)C(F)(F)C(F)(F)C(F)(F)C(F)(F)C(F)(F)C(F)(F)F [2l3l]

>  <Result>
>1.00%

$$$$
>  <Compound>
O=C(O)CCC(=O)OCCC(F)(F)C(F)(F)C(F)(F)C(F)(F)C(F)(F)C(F)(F)F [2i3l]

>  <Result>
0.01** %

$$$$
>  <Compound>
O=C(O)CCC(=O)OCCC(F)(F)C(F)(F)C(F)(F)C(F)(F)C(F)(F)C(F)(F)F [2i3c]

>  <Result>
0.10** %

$$$$
>  <Compound>
O=C(O)CCC(=O)OCCC(F)(F)C(F)(F)C(F)(F)C(F)(F)C(F)(F)C(F)(F)F [2i3e]

>  <Result>
0.10** %

$$$$
>  <Compound>
O=C(O)CCCC(=O)OCCC(F)(F)C(F)(F)C(F)(F)C(F)(F)C(F)(F)C(F)(F)F [2k3k]

>  <Result>
0.10** %

$$$$

---

# reported Maximum Non-Cytotoxic Concentration L929; entries follow
Tested on: L929 mouse fibroblasts
Marks after values point to notes of the source that are not given here.

>  <Compound>
O=C(O)CCC(=O)OCCC(F)(F)C(F)(F)C(F)(F)C(F)(F)C(F)(F)C(F)(F)C(F)(F)C(F)(F)F [2j3l]

>  <Maximum Non-Cytotoxic Concentration L929>
0.10** %

$$$$
>  <Compound>
O=C(O)CCCC(=O)OCCC(F)(F)C(F)(F)C(F)(F)C(F)(F)C(F)(F)C(F)(F)F [2k3e]

>  <Maximum Non-Cytotoxic Concentration L929>
0.10* %

$$$$
>  <Compound>
O=C(O)CCC(=O)OCCC(F)(F)C(F)(F)C(F)(F)C(F)(F)C(F)(F)C(F)(F)C(F)(F)C(F)(F)F [2j2j3h]

>  <Maximum Non-Cytotoxic Concentration L929>
0.25** %

$$$$
>  <Compound>
O=C(O)CCCC(=O)OCCC(F)(F)C(F)(F)C(F)(F)C(F)(F)C(F)(F)C(F)(F)F [2k3l]

>  <Maximum Non-Cytotoxic Concentration L929>
<0.25* %

$$$$
>  <Compound>
O=C(O)CCCCCSCCC(F)(F)C(F)(F)C(F)(F)C(F)(F)C(F)(F)C(F)(F)C(F)(F)C(F)(F)F [2c3f]

>  <Maximum Non-Cytotoxic Concentration L929>
<0.25%

$$$$
>  <Compound>
O=C(O)CCCCCSCCC(F)(F)C(F)(F)C(F)(F)C(F)(F)C(F)(F)C(F)(F)C(F)(F)C(F)(F)F [2c3l]

>  <Maximum Non-Cytotoxic Concentration L929>
0.25* %

$$$$
>  <Compound>
O=C(O)CCC(=O)OCCC(F)(F)C(F)(F)C(F)(F)C(F)(F)C(F)(F)C(F)(F)F [2i3e]

>  <Maximum Non-Cytotoxic Concentration L929>
0.20** %

$$$$
>  <Compound>
O=C(O)CCCC(=O)OCCC(F)(F)C(F)(F)C(F)(F)C(F)(F)C(F)(F)C(F)(F)F [2k3c]

>  <Maximum Non-Cytotoxic Concentration L929>
0.10* %

$$$$
>  <Compound>
O=C([O-])CCC(=O)OCCC(F)(F)C(F)(F)C(F)(F)C(F)(F)C(F)(F)C(F)(F)C(F)(F)C(F)(F)F.[Na+]

>  <Maximum Non-Cytotoxic Concentration L929>
<0.25%

$$$$
>  <Compound>
O=C(O)CCCC(=O)OCCC(F)(F)C(F)(F)C(F)(F)C(F)(F)C(F)(F)C(F)(F)C(F)(F)C(F)(F)F [2l3e]

>  <Maximum Non-Cytotoxic Concentration L929>
>2.00%

$$$$
>  <Compound>
O=C(O)CCCC(=O)OCCC(F)(F)C(F)(F)C(F)(F)C(F)(F)C(F)(F)C(F)(F)C(F)(F)C(F)(F)F [2l3k]

>  <Maximum Non-Cytotoxic Concentration L929>
>1.00%

$$$$
>  <Compound>
O=C(O)CCC(=O)OCCC(F)(F)C(F)(F)C(F)(F)C(F)(F)C(F)(F)C(F)(F)F [2i3l]

>  <Maximum Non-Cytotoxic Concentration L929>
0.01** %

$$$$
>  <Compound>
O=C([O-])CCC(=O)OCCC(F)(F)C(F)(F)C(F)(F)C(F)(F)C(F)(F)C(F)(F)C(F)(F)C(F)(F)F.[K+]

>  <Maximum Non-Cytotoxic Concentration L929>
<0.25%

$$$$
>  <Compound>
O=C(O)CCCC(=O)OCCC(F)(F)C(F)(F)C(F)(F)C(F)(F)C(F)(F)C(F)(F)F [2k3k]

>  <Maximum Non-Cytotoxic Concentration L929>
0.20** %

$$$$
>  <Compound>
O=C(O)CCCC(=O)OCCC(F)(F)C(F)(F)C(F)(F)C(F)(F)C(F)(F)C(F)(F)C(F)(F)C(F)(F)F [2l3l]

>  <Maximum Non-Cytotoxic Concentration L929>
>1.00%

$$$$
